# TESTED SYSTEM: Substance-K receptor (Homo sapiens) (UniProt P21452)
# Sequence (whole entry): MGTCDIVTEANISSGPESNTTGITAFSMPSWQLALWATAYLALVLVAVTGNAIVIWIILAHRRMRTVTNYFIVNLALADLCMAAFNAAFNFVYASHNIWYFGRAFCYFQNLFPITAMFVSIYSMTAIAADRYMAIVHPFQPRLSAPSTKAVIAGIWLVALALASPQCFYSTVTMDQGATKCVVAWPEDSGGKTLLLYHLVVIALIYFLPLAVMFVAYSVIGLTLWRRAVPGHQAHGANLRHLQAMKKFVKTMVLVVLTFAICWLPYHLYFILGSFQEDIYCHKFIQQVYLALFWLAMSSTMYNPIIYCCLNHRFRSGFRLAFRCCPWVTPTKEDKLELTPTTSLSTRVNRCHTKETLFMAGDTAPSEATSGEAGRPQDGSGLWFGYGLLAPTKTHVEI
# EXPERIMENT NOTES: Displacement of [125I]-NKA from NK2R (unknown origin) transfected in CHO cells at 10 uM by gamma counting analysis
# Type: cell-based
Residues, ends and D or L forms follow the SMILES beside them.
Catalogue of compounds with associated inhibition
The figure you give is taken to be in %; do not add the unit.

Answered cases to consult:
INSERT INTO measurements (compound, reported_metric, measured_value) VALUES
  ('CC[C@H](C)[C@H](NC(=O)[C@H](Cc1ccccc1)NC(=O)[C@H](CC(=O)O)NC(=O)[C@H](CC(=O)O)NC(=O)[C@H](CCCCN)NC(=O)[C@H](CO)NC(=O)[C@@H]1CCCN1C(=O)[C@@H]1CCC(=O)N1)C(=O)NCC(=O)N[C@@H](CC(C)C)C(=O)N[C@@H](CCSC)C(N)=O (HELM PEPTIDE1{[Glp].P.S.K.D.D.F.I.G.L.M.[am]}$$$$V2.0)', 'inhibition', 56),
  ('CSCC[C@H](NC(=O)[C@H](CC(C)C)NC(=O)CNC(=O)[C@@H](NC(=O)[C@H](Cc1ccccc1)NC(=O)[C@H](CCC(=O)O)NC(=O)[C@H](CC(=O)O)NC(=O)[C@@H]1CCCN1C(=O)[C@H](CC(N)=O)NC(=O)[C@@H]1CCCN1C(=O)[C@@H]1CCC(=O)N1)C(C)C)C(N)=O (HELM PEPTIDE1{[Glp].P.N.P.D.E.F.V.G.L.M.[am]}$$$$V2.0)', 'inhibition', 92),
  ('CSCC[C@H](NC(=O)[C@H](CC(C)C)NC(=O)CNC(=O)[C@H](Cc1ccccc1)N(C)C(=O)[C@H](Cc1ccccc1)NC(=O)[C@@H](NC(=O)[C@H](CC(=O)O)NC(=O)[C@H](Cc1cnc[nH]1)NC(=O)[C@H](CCSC)NC(=O)[C@@H](N)CC(=O)O)[C@@H](C)O)C(N)=O (HELM PEPTIDE1{D.M.H.D.T.F.[meF].G.L.M.[am]}$$$$V2.0)', 'inhibition', 19);

Read the next record carefully.
Q: Lab note: need inhibition for CC[C@H](C)[C@H](NC(=O)[C@H](Cc1ccccc1)NC(=O)[C@H](C)NC(=O)[C@H](CC(=O)O)NC(=O)[C@H](CCCCN)NC(=O)[C@H](CO)NC(=O)[C@@H]1CCCN1C(=O)[C@@H]1CCC(=O)N1)C(=O)NCC(=O)N[C@@H](CC(C)C)C(=O)N[C@@H](CCSC)C(N)=O [ELEDOISIN] (HELM PEPTIDE1{[Glp].P.S.K.D.A.F.I.G.L.M.[am]}$$$$V2.0) on Substance-K receptor (Homo sapiens) (UniProt P21452), anyone have it?
Ans: 95
